- testMethodNotes: LAP4-GFP expression modulators in yeast, confirmation, cell-based, cherry picks, flow cytometry, mother/daughter gates (AID 2271);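 further: ratio of sample to DMSO plate mean so 100% equals DMSO level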
- testContext: S. cerevisiae LAP4-GFP strain, 3 h, at 10 µM, 100 means same as DMSO control
Calls of active or inactive are those of the source.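 How the source made its calls: active means GFP response above 150% of the DMSO control; inconclusive means fewer than 70 events counted in any yeast strain; inactive means the rest.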
Just give me one of these, please: True (active), False (inactive)

Study these solved cases before continuing.
Which result was noted for this molecule in the test: `COc1cc(NC(=O)c2ccccc2)ccc1NC(=O)c1cc2ccccc2o1` False

Which result was noted for this molecule in the test: CC(Oc1ccc(Cl)cc1Cl)C(=O)NC1=NN(c2ccccc2)C(=O)C1 (configuration not stated) False

Which result was noted for this molecule in the test: `Cc1cc(NCCN2CCOCC2)n2ncc(-c3ccccc3)c2n1` False

Which result was noted for this molecule in the test: `Cc1nnc(N2C(=O)c3cccc4cccc(c34)C2=O)s1` False

Which result was noted for this molecule in the test: `CCOC(=O)c1ccc2nc(Nc3nc4ccc(F)cc4s3)sc2c1` False

Which result was noted for this molecule in the test: `Cc1cc(N2CCCCC2)n2nc(C)c(-c3ccccc3)c2n1` False

Continuing:
Which result was noted for this molecule in the test: COc1ccc(C2N(c3ccc(Cl)cc3)N=C(C(C)=O)N(C)N2C(C)=O)cc1 (configuration not stated) False

Which result was noted for this molecule in the test: `O=C(c1ccccc1Br)N1CCN(c2ccccc2)CC1` False

Which result was noted for this molecule in the test: COc1ccc(NC(=O)/C(Cl)=C(/Cl)S(=O)Cc2ccccc2)cn1 (configuration not stated) True

----------
- testMethodNotes: RPL19A-GFP modulators, yeast TOR pathway, confirmation, cell-based, S. cerevisiae, flow cytometry, cherry picks, mother/daughter gates (AID 2270)
- testContext: S. cerevisiae RPL19A-GFP strain, 3 h, measured here: daughter cell gate, at 10 µM, stronger effect = lower value, 100 = same GFP as DMSO wells
I'd be grateful if you could share measured GFP response vs DMSO for these entries.
Give bare numbers, in %.

Solved cases (5 shown):
Value lookup for GFP response vs DMSO; key = `Cc1ccccc1N1C(=O)c2sc3nc4c(c(=O)n3c2C1=O)CCC4` 94.9

Value lookup for GFP response vs DMSO; key = `O=[N+]([O-])/C=C/c1cn(Cc2ccc(F)cc2)c2ccccc12` 104

Value lookup for GFP response vs DMSO; key = `COc1ccccc1Oc1ccc(S(=O)(=O)N2CCCC2)cc1` 100

Value lookup for GFP response vs DMSO; key = `CCOC(=O)C1(CCCc2ccccc2)CCN(C(=O)c2cc(C)nn2CC)CC1` 99.8

Value lookup for GFP response vs DMSO; key = `COc1ccccc1OCCCc1c(C)n[nH]c1C` 89.8

// input: 5 compounds below; output: GFP response vs DMSO for each
1. Cc1ccc(NC(=O)c2nc(S(=O)(=O)Cc3ccccc3)ncc2Cl)cc1
2. O=C1c2cccc3cccc(c23)C(=O)N1c1ccncc1
3. Clc1ccc(-n2cccc2)cn1
4. CC[n+]1cc(C)ccc1/C=C/c1ccc(N(C)C)cc1
5. O=C(Nc1nc(-c2ccccc2)cs1)c1cccc([N+](=O)[O-])c1

92.5
97
99.2
106
100

// input: 6 compounds below; output: GFP response vs DMSO for each
1. CC(=O)c1ccc(N2CCN(C(=O)c3ccc(Br)cc3)CC2)c(F)c1
2. CCCc1cc(N2CCN(c3ccccn3)CC2)n2nc(C)c(-c3ccccc3)c2n1
3. Cc1cccc(Sc2ccc([N+](=O)[O-])cn2)c1
4. O=C(CN1CCCC1)Nc1cc(C(F)(F)F)cc(C(F)(F)F)c1
5. CCC(=O)Oc1oc(-c2ccccc2)nc1C=Nc1ccccc1OC
6. COc1ccc([N+](=O)[O-])c(S(=O)(=O)c2ccc(Cl)cc2)n1

[95.4, 101, 98.9, 110, 102, 54.7]

// input: 2 compounds below; output: GFP response vs DMSO for each
1. Nc1cccnc1S(=O)(=O)c1ccccc1
2. O=C1C=C(c2ccc(Cl)cc2)C(=O)N1Nc1ccccc1

1. 97.8
2. 89.1
